Test Details: High Content Assay for Compounds that inhibit the Assembly of the Perinucleolar Compartment;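 also: plate controls were DMSO wells for no effect and camptothecin positive control wells for full effect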
Cond: PC3M PTB-GFP, PNC prevalence imaging, 16 h; at 10 µM; stronger effect = lower value
About 4,300 (3.1%) of roughly 140,000 compounds were called active. Roughly 21% stayed inconclusive and do not appear here. The entries come from a sample that favours actives as a whole.
Binning scheme for activity change (PNC), negative = inhibition: lower band = under -20%, central band = from -20% up to 10%, upper band = 10% and over

# input Class label required: OC(CNC1CCCCC1)c1ccccc1 (stereo unspecified)
# output upper band

# input Band assignment needed for CC1=C(C(=O)Nc2ccccc2)SCCO1 please.
# output lower band

# input Place this molecule in its band: CN(C)C(=O)Oc1cc(=O)n2c3c(cccc13)CCC2
# output upper band

# input Any idea which band CNC(=S)N/N=C1\C2CN3CCN(C2)CC1(c1ccccc1)C3 is in?
# output central band

# input Given Cc1ccc(-n2c(-c3ccc([N+](=O)[O-])cc3)nc3ccccc3c2=O)cc1 , name the class its activity change (PNC), negative = inhibition places it in.
# output central band

# input For CC(C)N(CC#CCC1(O)c2ccccc2-c2ccccc21)C(C)C , which activity change (PNC), negative = inhibition bin applies?
# output upper band

----------
Test Details: High Content Assay for Compounds that inhibit the Assembly of the Perinucleolar Compartment;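 also: plate controls were DMSO wells for no effect and camptothecin positive control wells for full effect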
Cond: PC3M PTB-GFP, PNC prevalence imaging, 16 h; at 10 µM; stronger effect = lower value
In all, about 140,000 compounds went through this assay and about 4,300 (3.1%) were called active. Not shown: some 21% with an inconclusive outcome. The sample holds actives, similar compounds and a random draw of the others, so the mix is not that of the screen.
Reported activity change (PNC), negative = inhibition values for a set of compounds
# value in %; strip the unit string

{"columns": ["Compound", "Assay Value"],
 "data": [
  ["COc1ccc(-c2nc(CS(=O)CC(=O)N3CCC4(CC3)OCCO4)c(C)o2)cc1 (stereo not given)", -14.2],
  ["Cc1ccc(Cn2c(C)c3cnn(CC(=O)N4CCC5(CC4)OCCO5)c(=O)c3c2C)cc1", -100],
  ["Cc1ccc(-n2c(C)cc(/C=C3\\C(=O)NC(=O)N(C)C3=O)c2C)cc1C", 23.8],
  ["C=CCn1c(O)c(/C=N/N2CCOCC2)c(=O)[nH]c1=S", 60.9]
]}

activity change (PNC), negative = inhibition reading for O=C(CCCn1c(=O)[nH]c2cc(Cl)ccc2c1=O)N1CCC2(CC1)OCCO2 : 44

----------
Test Details: High Content Assay for Compounds that inhibit the Assembly of the Perinucleolar Compartment;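 also: plate controls were DMSO wells for no effect and camptothecin positive control wells for full effect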
Cond: PC3M PTB-GFP, PNC prevalence imaging, 16 h; at 10 µM; stronger effect = lower value
The campaign covered roughly 140,000 compounds. About 4,300 (3.1%) were called active. About 21% were inconclusive and are not listed. The list comes from a sample in which actives are over-represented; it also holds close analogues and randomly drawn compounds.
Recorded Endpoint: activity change (PNC), negative = inhibition (%)
Reply numerically in %, unit not repeated.

// worked examples, activity change (PNC), negative = inhibition included
{"columns": ["Compound", "Assay Value"],
 "data": [
  ["CCCCCn1c(=O)c(C(=O)Nc2c(C)n(C)n(-c3ccccc3)c2=O)c(O)c2ccccc21", -20.3],
  ["Cc1ccnc(-n2c(C)cc(/C=C3\\C(=O)NC(=S)N(C)C3=O)c2C)c1", -11.7],
  ["CN1CCN(c2cc(N3CCNCC3)ccc2[N+](=O)[O-])CC1", 12.6],
  ["O=C1NC(=O)N(c2ccc(F)cc2)C(=O)/C1=C/c1ccc2c(c1)CCCN2Cc1ccccc1", -20.7]
]}

Note to self: activity change (PNC), negative = inhibition recorded for CN(C)CC1CCCCC1OC(=O)c1ccc(Cl)c(Cl)c1 (stereo not given) was -10.5

Sourced from PubChem BioAssay AID2417
